- protocol.summary: Bioassay: distribution of I-123-labeled compounds in organs of rats after tail vein injection (percent dose/gram, brain/blood ratio)
- Format: in vivo, Female Sprague-Dawley rats
- test.context: rat, iv, blood, 60 minutes post-injection, 0.05 to 1.0 mCi, two rats, read-out: Percent Dose/Gram Blood 60 min.
API: label(entry) gives true if the entry's tissue uptake at 1 h is strictly smaller than 0.4 %ID/g; on equality or larger values it gives false.

molecule: CCN(Cc1ccccc1I)Cc1ccccc1[123I]
class.label: true

molecule: CC1CCC(C)N1Cc1ccccc1[123I] (stereo not drawn)
class.label: true

molecule: CCCNCCc1ccccc1[123I]
class.label: true

molecule: CC(C)NCc1ccccc1[123I]
class.label: false

molecule: CC(C)NCc1cccc([123I])c1
class.label: true

molecule: CC(C)N[C@H](C)Cc1ccc([123I])cc1
class.label: true

molecule: Nc1ccccc1[123I]
class.label: false

molecule: [123I]c1ccccc1NCc1ccccc1
class.label: true

molecule: C[C@H](N)Cc1ccc([123I])cc1
class.label: true

molecule: [123I]c1ccccc1CCN(CCc1ccccc1)CCc1ccccc1
class.label: false

molecule: CC(C)N(Cc1ccccc1[123I])C(C)C
class.label: true

molecule: CC(C)NCCc1ccccc1[123I]
class.label: true

molecule: CC(Cc1ccccc1)Nc1ccccc1[123I] (racemic)
class.label: false

molecule: [123I]c1ccc(NCc2ccccc2)cc1
class.label: false

molecule: CCCNCc1ccccc1[123I]
class.label: true

molecule: [123I]c1ccccc1CCNCCc1ccccc1
class.label: true

molecule: CCNCc1ccccc1[123I]
class.label: true

----------
- protocol.summary: Bioassay: distribution of I-123-labeled compounds in organs of rats after tail vein injection (percent dose/gram, brain/blood ratio)
- Assay type: in vivo, Female Sprague-Dawley rats
- test.context: rat, iv, blood, 5 minutes post-injection, 0.05 to 1.0 mCi, two rats, read-out: Percent Dose/Gram Blood 5 min.
Category key, based on recorded tissue uptake at 5 min: low = under 0.3 %ID/g, intermediate = from 0.3 %ID/g up to 0.6 %ID/g, high = 0.6 %ID/g and over

compound: Nc1ccc([123I])cc1
class.label: high
--
compound: CCCNCc1ccccc1[123I]
class.label: low
--
compound: NCCc1ccccc1[123I]
class.label: high
--
compound: CC(C)NCCc1ccccc1[123I]
class.label: low
--
compound: N#CC(N)c1ccccc1[123I] (centres unmarked)
class.label: intermediate
--
compound: CC(C)N(Cc1ccccc1[123I])C(C)C
class.label: low
--
compound: CCN(Cc1ccccc1I)Cc1ccccc1[123I]
class.label: intermediate
--
compound: Cc1cccc(C)c1NC(=O)CNCCc1ccccc1[123I]
class.label: intermediate
--
compound: [123I]c1ccc(NCCc2ccccc2)cc1
class.label: high
--
compound: [123I]c1ccccc1CCN1CCCCC1
class.label: intermediate
--
compound: CC(Cc1ccccc1)NCCc1ccccc1[123I] (racemic)
class.label: low
--
compound: [123I]c1ccccc1CN(CCc1ccccc1)CCc1ccccc1
class.label: high
--
compound: [123I]c1ccc(NCc2ccccc2)cc1
class.label: high
--
compound: N#CC(Nc1ccccc1)c1ccccc1[123I] (centres unmarked)
class.label: low
--
compound: CC(C)NCc1cccc([123I])c1
class.label: low
--
compound: CC(Cc1ccccc1)Nc1ccccc1[123I] (racemic)
class.label: intermediate
--
compound: CCCNCCc1ccccc1[123I]
class.label: low
--
compound: C[C@H](N)Cc1ccc([123I])cc1
class.label: low

Source: patent US4360511A
